system: TK-10 renal; test: NCI-60 one-dose screen, 48 h; conditions: 10 µM unless noted
The panel holds about 83,000 compounds, 20% with a hit somewhere; the sample as a whole holds those more often. The source made the active and inactive calls. How the source made its calls: active means growth percent below 10; inactive means the rest.
Pick one: T = active, F = inactive

Field: example entries. Status: answers known.
COc1cc(-c2ccc[nH]2)[nH]c1/C=C1\N=C(C)C(CC(=O)OCC(C)(C)C)=C1C ... T
Cc1cc(N2CCN(CC(=O)Nc3ccc4c(ccn4Cc4ccccc4)c3)CC2)nc(N2CCOCC2)n1 ... F
CNC(=O)Nc1ccc(-c2ccc3ncnc(Nc4cccc(Cl)c4)c3c2)cc1 ... T
O=C(Nc1ccc(Nc2ccncc2)cc1)c1ccc(Nc2ccnc3ccc([N+](=O)[O-])cc23)cc1 ... F
N#Cc1c(-c2ccc(Cl)cc2)nc(NN=Cc2ccc[nH]2)nc1N1CCOCC1 ... F

I'd appreciate the recorded outcome for COC(=O)/C=C1/SC(=Nc2ccc(F)cc2)N(CCc2c[nH]c3ccc(O)cc23)C1=O from this test.
F

Lab log entry: CCN(CC)CCOc1ccc(Nc2ncc3cc(-c4c(Cl)cccc4Cl)c(=O)n(CCOC)c3n2)cc1 — outcome as called in the assay?
T

In this assay, the call recorded for O=C(Nc1cccnc1Nc1ccc(Cl)cc1)c1cn(Cc2cccc(Oc3ccccc3)c2)nn1 was what?
F

Lab log entry: COCCOC(C)C(/C=N/NC(N)=S)=N/NC(N)=S (stereo unspecified) — outcome as called in the assay?
F

Answer briefly: the call reported for O=C1OCC2=C1C(c1ccccc1)c1cc3c(cc1N2CCO)OCCO3 (stereo unspecified) in this assay.
F

Please indicate how the test categorized NS(=O)(=O)c1ccc(C(=O)N=Nc2c(O)[nH]c3ccc(Cl)cc23)cc1 .
F

# lookup: test call for O=C(O)c1cn(C2CC2)c2cc(N3CCN(C(=O)N4CCOCC4)CC3)c(F)cc2c1=O
F

State the result this test recorded for COc1ccc(C2C3=C(COC3=O)N(CCO)c3cc4c(cc32)OCO4)cc1OC (stereo unspecified) .
F

So what was the verdict on CSc1nc(-c2ccco2)c(C#N)c(=O)n1C in this test?
F

// outcome(item) with item = CC(C)NS(=O)(=O)/N=C1\NC(=O)NC1=C(Cl)Cl
F

Recorded call for O=C(CSc1nnnn1-c1ccccc1)Nc1ccc(Oc2ccccc2)cc1 ?
F

Name the outcome recorded for COc1ccc(C(c2cc(OC)c(OC)c(OC)c2)N2CCCCC2)cc1 (stereo unspecified) in the assay.
F

What did this assay record as the result for C=C1C(=O)O[C@@H]2C3C(=C(C)CC[C@@H]12)CC1O[C@]13C (stereo partly specified) ?
F

Could you please tell me the result logged for COC(=O)c1ccc2c(c1)c1c(C)c3cnccc3c(C)c1n2C in this assay?
T

Dear all, I need the recorded test outcome for CS(=O)(=O)Nc1cc(-c2ccc3ncnc(Nc4ccc(F)c(Cl)c4)c3c2)ccc1Cl , thank you.
F

Name the outcome recorded for O=[N+]([O-])c1ccccc1Sc1ccccc1[N+](=O)[O-] in the assay.
F

====

test system: MALME-3M melanoma; assay: NCI-60 one-dose screen, 48 h; settings: 10 µM unless noted
The panel holds about 83,000 compounds, 20% with a hit somewhere; the sample as a whole holds those more often. Activity calls are given as the source filed them. How the source made its calls: active means growth percent below 10; inactive means the rest.
Valid outcomes are listed here; reply with one: active, inactive

Solved cases below.
COc1cc(/C=N/NC(=O)c2ccc(-n3cc(-c4ccccc4)nn3)cc2)cc(OC)c1OC ... active
COc1ccc(/C=C2\c3cc(OC)c(OC)c(OC)c3CC[C@@H]2O)cc1F ... inactive
COc1ccc(-c2cc(-c3cn(-c4cccc(Cl)c4)nc3-c3ccc(OC)cc3)on2)cc1 ... inactive

Per the records of this test, what outcome belongs to CCCOC(=O)Nc1nc2ccc(SCC)cc2s1 ?
inactive

Test call, this molecule: Cc1ccc2nc(-c3ccc(C(=O)N/N=C/c4ccc([N+](=O)[O-])cc4)cc3)[nH]c2c1
inactive

Dear colleague, could you share the recorded outcome for COc1ccc(/C=C(/C(=O)N2CCNCC2)c2cc(OC)c(OC)c(OC)c2)cc1O when you have a moment?
inactive

====

test system: M14 melanoma; assay: NCI-60 one-dose screen, 48 h; conditions: 10 µM unless noted
About 83,000 compounds went through this panel and 20% of them were active in at least one assay; those are over-represented in the sample as a whole. Calls of active or inactive are those of the source. How the source made its calls: active means growth percent below 10; inactive means the rest.
Assign a class; possible classes are active, inactive

Look over these answered cases.
Nc1ccc(Br)cc1C(F)(F)F ... inactive
CSc1nc2ccc(C)cc2cc1/C=C1/C=C(c2ccccc2)NC1=O ... inactive
O=C1CCCC1[n+]1ccccc1 (centres undefined) ... inactive
C[C@@H]1CN(c2cnc(C(=O)Nc3cc(F)cc4cccnc34)cn2)C[C@H](C)N1 ... inactive
COc1cc(Cc2cc(-c3ccccc3)nn(Cc3ccccc3)c2=O)cc(OC)c1OC ... inactive

Hey, what did the test say about CCN1CCN(CCNc2nccc(-c3c(-c4ccc(F)c(O)c4)nc4occn34)n2)S1(=O)=O ?
inactive

Would you mind telling me which call this test gave COc1ccc(C(O)c2cc3c(N)c(C(=O)Nc4cccc5ccccc45)sc3nc2C)cc1 (centres undefined) ?
inactive

How did this test come out for COc1ccc2cc(C(=O)N3CCC([C@@H](C)C(=O)NCc4ccc5c(c4)OCO5)CC3)[nH]c2c1 ?
inactive

====

system: SR leukemia; assay: NCI-60 one-dose screen, 48 h; conditions: 10 µM unless noted
About 83,000 compounds went through this panel and 20% of them were active in at least one assay; those are over-represented in the sample as a whole. The source made the active and inactive calls. Rule for the calls: active = growth percent below 10; inactive = the rest.
Classes to choose from: 1 (yes) for active, 0 (no) for inactive

# fetch the recorded call for COc1cc(Cc2cc(-c3ccccc3)nn(Cc3ccccc3)c2=O)cc(OC)c1OC here
0 (no)

====

tested on: OVCAR-3 ovarian; experiment: NCI-60 one-dose screen, 48 h; details: 10 µM unless noted
Compounds without any hit were thinned out: in the full panel of roughly 83,000, 20% have a hit. The source made the active and inactive calls. How the source made its calls: active means growth percent below 10; inactive means the rest.
Form entry, call: pick from active, inactive

Worked set:
COc1ccc(-c2cc(-c3cn(-c4cccc(Cl)c4)nc3-c3ccc(OC)cc3)on2)cc1 ... inactive
CN(C)c1ccc(CNCCO)cc1 ... inactive
CS(=O)(=O)Nc1cc(-c2ccc3ncnc(Nc4ccc5c(cnn5Cc5ccccc5F)c4)c3c2)cnc1Cl ... inactive
CC1(/C=C/c2ccc(-c3ccccc3)cc2)CCn2cnc3ncnc(c32)N1O (configuration not stated) ... inactive
O=C(Nc1cc(Cl)ccc1O)c1ccccc1Nc1ccnc(C(F)(F)F)c1 ... active
CCCOC(=O)Nc1nc2ccc(SCC)cc2s1 ... inactive

Per the assay record, what outcome was assigned to COc1cc(C=C2C(=O)NC(=S)NC2=O)cc(CN2CCCC2)c1O ?
inactive

Tell me the recorded outcome of this test for C[C@H]1[C@H](C)CC[C@]2(C(=O)NCCNCCN)CC[C@]3(C)C(=CC[C@@H]4[C@@]5(C)CCC(=O)C(C)(C)[C@@H]5CC[C@]43C)[C@H]12 .
active

Dear all, I need the recorded test outcome for O=c1oc2c(cc1-c1ccccc1)c[n+]([O-])c1ccccc21 , thank you.
inactive

Record request — test call for CC(C)NS(=O)(=O)/N=C1\NC(=O)NC1=C(Cl)Cl
inactive

====

test system: K-562 leukemia; assay: NCI-60 one-dose screen, 48 h; conditions: 10 µM unless noted
Compounds without any hit were thinned out: in the full panel of roughly 83,000, 20% have a hit. Active and inactive are the calls of the source. The calls were made as follows: active = growth percent below 10; inactive = the rest.
I would appreciate it if you answered using one of these outcomes: active, inactive

What classification did Nc1nc2ccccc2c2c(=O)c3cc(Cl)ccc3sc12 end up with in this test?
inactive

====

test system: CCRF-CEM leukemia; assay: NCI-60 one-dose screen, 48 h (100 = growth as untreated, 0 = no growth, -100 = all killed); details: 10 µM unless noted
Compounds without any hit were thinned out: in the full panel of roughly 83,000, 20% have a hit. Activity calls are given as the source filed them. Rule for the calls: active = growth percent below 10; inactive = the rest.
Measurement name: growth

Need growth, item C=C(C)[C@@H]1CC[C@]2(C(=O)N3CCNCC3)CC[C@]3(C)[C@H](CC[C@@H]4[C@@](C)(CCC(=O)N5CCNCC5)[C@H](C(=C)C)CC[C@]43C)[C@@H]12
3.76% (active)

GET /values?readout=growth&item= Cc1ccc2cnc(N)c(C#Cc3cc(C(=O)Nc4ccc(CN5CCN(C)CC5)c(C(F)(F)F)c4)cnc3C)c2c1
-34.8% (active)

Need growth, item CC(C)n1c2ccc(Br)cc2c2c3c(c4c5ccccc5ccc4c21)C(=O)NC3=O
90.1% (inactive)

Look at this molecule and give its reported growth. O=C1/C(=C/c2ccc(Cl)cc2)CN(C(=O)C(Cl)Cl)C/C1=C\c1ccc(Cl)cc1
7% (active)

Which value of growth has been reported for O=C(CSc1nnnn1-c1ccccc1)Nc1ccc(Oc2ccccc2)cc1 in the records?
114% (inactive)

Report growth for O=C(Nc1cccnc1Nc1ccccc1)c1cn(Cc2cccc(Oc3ccccc3)c2)nn1 please.
47.4% (inactive)
